Source: patent US20180016324A1

Listing: t½ of selected binders
biological target: T1, ZIKV (prM80E) with a C-terminal myc-myc-hexahistidine tag (Zika virus, UniProt A0A024B7W1 104-694); assay: SPR, mAb captured, 37C, pH 5.0 chase
T1 construct: also called ZIKV (prM80E)-mmH; ZIKV-mmH
Express your answer in min, writing the number without its unit.

The measured t½ associated with H4H25703N (antibody, V domains shown) VH: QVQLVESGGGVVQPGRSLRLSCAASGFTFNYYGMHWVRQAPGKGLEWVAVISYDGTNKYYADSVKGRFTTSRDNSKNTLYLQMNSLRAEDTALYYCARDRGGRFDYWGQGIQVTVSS VL: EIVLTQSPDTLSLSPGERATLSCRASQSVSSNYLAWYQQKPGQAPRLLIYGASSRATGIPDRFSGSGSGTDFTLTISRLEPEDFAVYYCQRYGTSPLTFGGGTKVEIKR reads 4.1

# evaluate next
The measured t½ associated with H4H25617P (antibody, V domains shown) VH: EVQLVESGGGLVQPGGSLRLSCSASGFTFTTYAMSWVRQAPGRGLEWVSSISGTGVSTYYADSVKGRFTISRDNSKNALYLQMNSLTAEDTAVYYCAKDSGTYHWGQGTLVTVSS VL: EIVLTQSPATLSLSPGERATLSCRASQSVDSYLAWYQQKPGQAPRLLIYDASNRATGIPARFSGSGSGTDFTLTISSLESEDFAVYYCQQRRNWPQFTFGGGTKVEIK reads 2.5
